Data credit: ChEMBL document CHEMBL3425459

Please go through the items and note down their pIC50.
# experimental_system: Patatin-like phospholipase domain-containing protein 2 (Mus musculus)
# protocol_details: Inhibition of mouse recombinant ATGL expressed in African green monkey COS7 cells assessed as reduction in triglyceride hydrolase activity using radio-labelled triolein substrate incubated for 1 hr by liquid scintillation counting
pIC50: −log10 of the molar value.

Completed entries (count: 3):
Oc1ccc(/C=N/N2CCN(C3CCCCC3)CC2)c(O)c1	< 3.70
CN(CCO)c1ccc(/C=N/N2CCN(c3ccccc3)CC2)cc1	< 3.70
Oc1ccc(/C=N/N2CCN(CCc3ccccc3)CC2)c(O)c1	< 3.70

Below are 2 compounds. Give each one its pIC50.
1. C(=N\N1CCN(c2ccccc2)CC1)/c1cccc2ccccc12
2. C(=N\N1CCN(c2ccccc2)CC1)/c1ccc2ccccc2c1

-- reply
3.70
< 3.70

-- ask For O=c1[nH]c2ccc(/C=N/N3CCN(c4ccccc4)CC3)cc2[nH]1 , what is its reported pIC50?
-- reply < 3.70

###

# experimental_system: Patatin-like phospholipase domain-containing protein 2 (Mus musculus, UniProt Q8BJ56)
# Sequence (Q8BJ56 whole entry, the tested form may be a part): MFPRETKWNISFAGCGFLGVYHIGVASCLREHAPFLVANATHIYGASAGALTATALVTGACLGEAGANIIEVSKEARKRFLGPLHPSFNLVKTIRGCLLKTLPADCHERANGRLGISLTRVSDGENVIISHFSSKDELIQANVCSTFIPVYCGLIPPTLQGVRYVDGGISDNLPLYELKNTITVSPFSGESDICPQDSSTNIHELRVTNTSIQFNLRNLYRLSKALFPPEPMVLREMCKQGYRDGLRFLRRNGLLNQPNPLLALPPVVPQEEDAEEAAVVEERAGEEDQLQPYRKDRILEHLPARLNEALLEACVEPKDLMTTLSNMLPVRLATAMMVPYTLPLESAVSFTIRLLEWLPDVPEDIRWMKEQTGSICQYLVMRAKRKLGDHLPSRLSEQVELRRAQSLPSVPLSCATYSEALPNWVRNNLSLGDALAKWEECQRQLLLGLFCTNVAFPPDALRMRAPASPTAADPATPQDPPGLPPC
# protocol_details: Inhibition of mouse recombinant ATGL expressed in African green monkey COS7 cells assessed as reduction in triglyceride hydrolase activity using radio-labelled triolein substrate incubated for 1 hr by liquid scintillation counting
quantity_name: IC50

O=[N+]([O-])c1ccccc1/C=N/N1CCN(c2ccccc2)CC1	180 µM
Oc1ccc(/C=N/N2CCN(Cc3ccccc3)CC2)c(O)c1	> 200 µM
CCC/C=C/C=N/N1CCN(c2ccccc2)CC1	> 200 µM
C(=N\N1CCN(c2ccccc2)CC1)/c1cccc(Oc2ccccc2)c1	> 200 µM
Clc1ccc(/C=N/N2CCN(c3ccccc3)CC2)c(Cl)c1	> 200 µM

Below are 2 compounds. Give each one its IC50.
1. Oc1ccc(/C=N/N2CCC(Cc3ccccc3)CC2)c(O)c1
2. C(=N\N1CCN(c2ccccc2)CC1)/c1ccc2c(c1)OCCO2

-- reply
1: > 200 µM; 2: > 200 µM

###

# experimental_system: Patatin-like phospholipase domain-containing protein 2 (Mus musculus)
# protocol_details: Inhibition of mouse recombinant ATGL expressed in African green monkey COS7 cells assessed as reduction in triglyceride hydrolase activity using radio-labelled triolein substrate incubated for 1 hr by liquid scintillation counting
quantity_name: IC50

Completed entries (count: 5):
Oc1ccc(CN2CCN(c3ccccc3)CC2)cc1O	> 200 µM
COc1ccc(C(=O)NN2CCN(c3ccccc3)CC2)cc1OC	> 200 µM
Oc1ccc(/C=N/N2CCN(c3ccccc3)CC2)cc1	50 µM
CC(=O)Nc1ccc(/C=N/N2CCN(c3ccccc3)CC2)cc1	> 200 µM
C(=N\N1CCN(c2ccccc2)CC1)/c1cccnc1	> 200 µM

Below are 3 compounds. Give each one its IC50.
1. COc1ccc(/C=N/N2CCN(c3ccccc3)CC2)cc1O
2. Oc1ccccc1/C=N/N1CCN(c2ccccc2)CC1
3. CCCOc1cccc(/C=N/N2CCN(c3ccccc3)CC2)c1

-- reply
["80 µM", "75 µM", "> 200 µM"]

###

# experimental_system: Patatin-like phospholipase domain-containing protein 2 (Mus musculus, UniProt Q8BJ56)
# protocol_details: Inhibition of mouse recombinant ATGL expressed in African green monkey COS7 cells assessed as reduction in triglyceride hydrolase activity using radio-labelled triolein substrate incubated for 1 hr by liquid scintillation counting
quantity_name: IC50 (µM)
One number for each entry, in µM.

CCOC(=O)c1nn(-c2ccc(N(C)C)cc2)cc1O	120

Query molecule follows.
-- ask For N#Cc1ccccc1/C=N/N1CCN(c2ccccc2)CC1 , what is its reported IC50?
-- reply 120
